target-or-test-system: human GLP-1 receptor (Homo sapiens)
Construct: host or cells: CHO-K1
Sequence (P43220 24-463): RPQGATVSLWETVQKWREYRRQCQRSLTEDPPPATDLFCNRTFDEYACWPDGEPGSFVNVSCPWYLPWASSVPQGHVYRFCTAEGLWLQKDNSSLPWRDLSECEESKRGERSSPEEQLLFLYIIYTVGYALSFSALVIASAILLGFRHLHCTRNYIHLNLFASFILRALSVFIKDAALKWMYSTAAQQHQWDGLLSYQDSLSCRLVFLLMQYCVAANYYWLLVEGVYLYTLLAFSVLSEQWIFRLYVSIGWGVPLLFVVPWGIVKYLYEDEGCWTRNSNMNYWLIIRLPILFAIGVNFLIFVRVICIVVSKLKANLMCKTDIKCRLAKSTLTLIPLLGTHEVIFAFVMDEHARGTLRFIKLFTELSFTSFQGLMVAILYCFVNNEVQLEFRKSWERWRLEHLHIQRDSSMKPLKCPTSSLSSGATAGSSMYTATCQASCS
assay-method-text: cAMP activity test (cAMP dynamic HTRF kit) in CHO-K1/GLP-1 receptor-expressing cells
Type: cell-based
experimental-conditions: cAMP activity, CHO-K1/GLP-1 receptor-expressing cells; read-out: EC50
# pEC50 per entry
pEC50 is defined as minus the log10 of a concentration measured in mol/L.

[[record]]
compound = "O=C(O)c1ccc2nc(Cc3ccc(-c4cccc(OCc5ccc(F)c(F)c5)n4)c(F)c3)n(CC3CCCO3)c2c1 (stereo not shown)"
quantitative_result = 7.21

[[record]]
compound = "N#Cc1ccc(COc2cccc(-c3ccc(Cc4nc5ccc(C(=O)O)cc5n4CC4CCCO4)cc3F)c2)c(F)c1 (stereo not shown)"
quantitative_result = 7.12

[[record]]
compound = "O=C(O)c1ccc2nc(Cc3ccc(-c4cccc(OCc5ccc(Cl)cc5F)c4)cc3)n(CC3CCCO3)c2c1 (stereo not shown)"
quantitative_result = 6.89


Now for a further compound.
Request the reported pEC50 associated with "O=C(O)c1ccc2nc(Cc3ccc(-c4cccc(OCc5ccc(Cl)cc5F)n4)c(F)c3)n(C[C@H]3CCCO3)c2c1" 6.96
